// reported IC50 per item
test: Cytotoxicity against human MDA468 cells expressing AKT; type: functional, cell-based, MDA-MB-468; settings: Homo sapiens, MDA-MB-468
READOUT: IC50 (nM)

- COMPOUND: "CCC[C@H]1O[C@@H]2CC(=O)O[C@@H]2C2=C1C(=O)c1ccccc1C2=O (racemic)"
  READOUT: "IC50"
  MEASURED NUMBER: 600
- COMPOUND: "O=C1C[C@H]2OCC3=C(C(=O)c4ccccc4C3=O)[C@H]2O1"
  READOUT: "IC50"
  MEASURED NUMBER: 800
- COMPOUND: "O=C1C[C@H]2O[C@H](COCc3ccccc3)C3=C(C(=O)c4ccccc4C3=O)[C@H]2O1 (racemic)"
  READOUT: "IC50"
  MEASURED NUMBER: 1000
- COMPOUND: "O=C1C[C@H]2OC3(CCCC3)C3=C(C(=O)c4ccccc4C3=O)[C@H]2O1 (racemic)"
  READOUT: "IC50"
  MEASURED NUMBER: 1600
- COMPOUND: "O=C1C[C@H]2O[C@@H](c3cccc(O)c3)C3=C(C(=O)c4ccccc4C3=O)[C@H]2O1 (racemic)"
  READOUT: "IC50"
  MEASURED NUMBER: 1000
- COMPOUND: "CC1(C)O[C@@H]2CC(=O)O[C@@H]2C2=C1C(=O)c1ccccc1C2=O (racemic)"
  READOUT: "IC50"
  MEASURED NUMBER: 230
- COMPOUND: "O=C1C[C@H]2O[C@H](c3ccsc3)C3=C(C(=O)c4ccccc4C3=O)[C@H]2O1 (stereo in doubt; (+))"
  READOUT: "IC50"
  MEASURED NUMBER: 300
- COMPOUND: "CCC[C@@H]1O[C@@H]2CC(=O)O[C@@H]2C2=C1C(=O)c1ccccc1C2=O (racemic)"
  READOUT: "IC50"
  MEASURED NUMBER: 1300
- COMPOUND: "CCC[C@H]1O[C@H](CC(=O)O)CC2=C1C(=O)c1c(O)cccc1C2=O"
  READOUT: "IC50"
  MEASURED NUMBER: 330
- COMPOUND: "CCC[C@H]1O[C@@H]2CC(=O)O[C@@H]2C2=C1C(=O)c1c(O)cccc1C2=O"
  READOUT: "IC50"
  MEASURED NUMBER: 60
- COMPOUND: "O=C1C[C@H]2O[C@H](c3cccs3)C3=C(C(=O)c4ccccc4C3=O)[C@H]2O1"
  READOUT: "IC50"
  MEASURED NUMBER: 600
- COMPOUND: "O=C1C[C@H]2O[C@@H](c3ccc(O)cc3)C3=C(C(=O)c4ccccc4C3=O)[C@H]2O1 (racemic)"
  READOUT: "IC50"
  MEASURED NUMBER: 550
- COMPOUND: "C[C@H]1O[C@@H]2CC(=O)O[C@@H]2C2=C1C(=O)c1c(ccc([C@H]3C[C@@H](N(C)C)[C@H](O)[C@@H](C)O3)c1O)C2=O"
  READOUT: "IC50"
  MEASURED NUMBER: 50
- COMPOUND: "CCC[C@H]1O[C@@H]2CC(=O)O[C@@H]2C2=C1C(=O)c1c(OC)cccc1C2=O"
  READOUT: "IC50"
  MEASURED NUMBER: 1110
- COMPOUND: "C[C@H]1O[C@@H]2CC(=O)O[C@@H]2C2=C1C(=O)c1ccccc1C2=O"
  READOUT: "IC50"
  MEASURED NUMBER: 480
- COMPOUND: "Nc1ccc([C@@H]2O[C@@H]3CC(=O)O[C@@H]3C3=C2C(=O)c2ccccc2C3=O)cc1 (racemic)"
  READOUT: "IC50"
  MEASURED NUMBER: 550

FYI, the data here is from ChEMBL document CHEMBL1153413.
